Each item that follows carries a reported k2.
MEASURED TARGET: T1, Caspase-6, P55212
T1 chain: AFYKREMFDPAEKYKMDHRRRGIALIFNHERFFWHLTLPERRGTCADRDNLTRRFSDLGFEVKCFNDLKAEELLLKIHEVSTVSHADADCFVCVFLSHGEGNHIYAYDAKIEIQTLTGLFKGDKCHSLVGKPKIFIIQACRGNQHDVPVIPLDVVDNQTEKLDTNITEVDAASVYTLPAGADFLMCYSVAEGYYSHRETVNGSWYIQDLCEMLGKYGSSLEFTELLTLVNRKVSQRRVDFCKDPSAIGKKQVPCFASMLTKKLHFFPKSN
ASSAY PROCEDURE: cell-based or functional assay

BINDER: DEVD (modifications not checked) [Cbz-Asp-Glu-Val-AAsp-CH═CH-COOCH2Ph]
UOM: M⁻¹ s⁻¹
k2: 8470
--
BINDER: DEVD (modifications not checked) [Cbz-Asp-Glu-Val-AAsp-CH═CH-CONHCH2Ph]
UOM: M⁻¹ s⁻¹
k2: 3210
--
BINDER: LETD (modifications not checked) [Cbz-Leu-Glu-Thr-AAsp-CH═CH-COOEt]
UOM: M⁻¹ s⁻¹
k2: 18700
--
BINDER: DEVD (modifications not checked) [Cbz-Asp-Glu-Val-AAsp-CH═CH-COOEt (trans)]
UOM: M⁻¹ s⁻¹
k2: 35600
